Source: ChEMBL document CHEMBL6153047

Reported degraded at 72 h values for the following molecules.
Assay: Chemical stability assessed as compound decomposition at pH 4 and 40 degreeC measured after 3 days by HPLC-UV analysis
Assay type: physicochemical
Conditions: buffer, time 3 day, read-out: Drug degradation

Task: I would be grateful if you could share the reported degraded at 72 h for N=S(c1ccc(C(F)(F)F)cc1)c1cccnc1 (stereo not drawn) .
Output: 1%

Task: I would be grateful if you could share the reported degraded at 72 h for Cc1ccc(S(=N)C2CC2)cc1 (stereo not drawn) .
Output: 3%

Task: I would be grateful if you could share the reported degraded at 72 h for N#C/N=S(\c1ccc(C(F)(F)F)cc1)C1CC1 (stereo not drawn) .
Output: 9%

Task: I would be grateful if you could share the reported degraded at 72 h for Cc1ccc(S(=N)(=O)c2ccccc2)cc1 (stereo not drawn) .
Output: < 0.5%

Task: I would be grateful if you could share the reported degraded at 72 h for CC(=O)/N=S(/c1ccccc1)c1ccc(C)cc1 (stereo not drawn) .
Output: 5%

Task: I would be grateful if you could share the reported degraded at 72 h for FC(F)(F)c1ccc(/S(=N\c2ccccc2)C2CC2)cc1 (stereo not drawn) .
Output: 2%

Task: I would be grateful if you could share the reported degraded at 72 h for CCOC(=O)/C(=S(/NC(=O)C(C)(C)C)c1ccccc1)P(=O)(OCC)OCC (stereo not drawn) .
Output: < 0.5%

Task: I would be grateful if you could share the reported degraded at 72 h for COC(=O)C(C(=O)OC)=S(NC(=O)C(C)(C)C)c1ccccc1 (stereo not drawn) .
Output: < 0.1%

* * *

Experiment: Chemical stability assessed as compound decomposition at pH 10 and 40 degreeC measured after 3 days by HPLC-UV analysis
Type: physicochemical
Conditions: buffer, time 3 day, read-out: Drug degradation
Measurement Label: degraded at 72 h

Answered cases to consult:
1) Cc1ccc(S(=N)(=O)c2ccccc2)cc1 (centres undefined); < 0.5%
2) CCOC(=O)/C(=S(/NC(=O)C(C)(C)C)c1ccccc1)P(=O)(OCC)OCC (centres undefined); < 0.5%
3) Cc1ccc(S(=N)C2CC2)cc1 (centres undefined); 7%

API: the following record is the query input.
Task: I would be grateful if you could share the reported degraded at 72 h for N#C/N=S(\c1ccc(C(F)(F)F)cc1)C1CC1 (centres undefined) .
Output: < 0.1%
